- Tested on: Escherichia coli TOP10;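 also: peptides expressed intracellularly from a pBAD plasmid library in pooled LB shake-flask culture, induced with 0.3% L-arabinose, DNA abundance read by NGS, three biological replicates, DESeq2 with apeglm shrinkage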
- assay.comment: shrunken log2 fold change of peptide-encoding DNA abundance (4.5 h post-induction vs induction); higher = less antimicrobial activity (less host growth inhibition)
- protocol.conditions: time post-induction: 4.5 h; library: site-saturation at positions 5, 18, 19, 20
Overview of reported shrunken log2 fold change across a group of sequences:
Form: value (number only, do not type unit).

These solved cases illustrate the format of a correct answer.
[
  {
    "sequence.text": "RRIRRRPPRLPRPRPRPALIPRP",
    "shrunken log2 fold change": 1.05
  },
  {
    "sequence.text": "RRIRNRPPRLPRPRPRPRFHPRP",
    "shrunken log2 fold change": 0.0377
  },
  {
    "sequence.text": "RRIRVRPPRLPRPRPRPRVPPRP",
    "shrunken log2 fold change": -0.00723
  }
]

For the sequence shown here, `RRIRTRPPRLPRPRPRPVNTPRP` , give the reported shrunken log2 fold change.
-0.103

For the sequence shown here, `RRIRFRPPRLPRPRPRPAEMPRP` , give the reported shrunken log2 fold change.
0.00299

For the sequence shown here, `RRIRTRPPRLPRPRPRPAPIPRP` , give the reported shrunken log2 fold change.
0.0613

For the sequence shown here, `RRIRVRPPRLPRPRPRPQRAPRP` , give the reported shrunken log2 fold change.
0.348

For the sequence shown here, `RRIRKRPPRLPRPRPRPMTTPRP` , give the reported shrunken log2 fold change.
0.31
